Values compiled from patent US7417156B2.

# System: 60 cell line panel
# Format: cell-based
# Assay Conditions: 60 cell line panel
Collected Log10TGI50 Delta values appear next to each entry.
Please give only the number in your answer, with no unit.

[[record]]
molecule = "CC1CCC2C(C)C(CC(COC(=O)CCC(=O)O)CC3OC4OC5(C)CCC6C(C)CCC(C3C)C46OO5)OC3OC4(C)CCC1C32OO4 (centres unmarked) [Compound 8a, bis-trioxane primary succinate monoester]"
reported_result = 3.26

[[record]]
molecule = "CC1CCC2C(C)C(CC(COCC(=O)O)CC3OC4OC5(C)CCC6C(C)CCC(C3C)C46OO5)OC3OC4(C)CCC1C32OO4 (centres unmarked) [Compound 12b, bis-trioxane O-acetic acid]"
reported_result = 3.49

[[record]]
molecule = "C[C@@H]1CC[C@H]2[C@@H](C)C(=O)O[C@@H]3O[C@]4(C)CC[C@@H]1[C@]32OO4 [Artemisinin]"
reported_result = "−4.00"

[[record]]
molecule = "CC(=O)O[C@H]1C(=O)[C@@]2(C)[C@H]([C@H](OC(=O)c3ccccc3)[C@]3(O)C[C@H](OC(=O)[C@H](O)[C@@H](NC(=O)c4ccccc4)c4ccccc4)C(C)=C1C3(C)C)[C@]1(OC(C)=O)CO[C@@H]1C[C@@H]2O [Paclitaxel, paclitaxel, reference compound]"
reported_result = "−4.54"


Attention now turns to another entry.
Q: Recorded Log10TGI50 Delta of CC1CCC2C(C)C(CC(O)(CO)CC3OC4OC5(C)CCC6C(C)CCC(C3C)C46OO5)OC3OC4(C)CCC1C32OO4 (centres unmarked) [Compound 5, bis-trioxane vicinal diol] , please.
Ans: 3.50
